Test system: CRL-7250
Test: Cytotoxic Profiling of Annotated Libraries Using Quantitative High-Throughput Screening (AID 1296008); further: on the % scale 0 is the no-effect control and ±100 the full control effect; nearly all actives have a fitted effect of over 60% in size
Details: Five cell lines viability, CellTiter-Glo ATP luminescence, 48-72 h; active compounds read low
Inconclusive results are not listed. Where a SMILES comes first, the peptide text is derived from it. [ ]: non-standard residue; d: D form. ξ: configuration not given here. ξPhe(βξ-Me) = CC(c1ccccc1)C(N)C(=O)O; GABA = NCCCC(=O)O
MEASURED QUANTITY: max response (%)
One number for each entry, in %.

// lookup max response | system=CRL-7250 | key= C[C@@H]1CCC2C(C)(C)[C@H](O)CC[C@]2(C)[C@@]12Cc1c(O)cc3c(c1O2)CNC3=O (stereo partly drawn)
-75.1

Then this compound: C[C@@]12C[C@]3(O)O[C@H](O1)[C@]1(COC(=O)c4ccccc4)[C@H]3C[C@@]12O[C@@H]1O[C@H](CO)[C@@H](O)[C@H](O)[C@H]1O
0.654

What do we get for COc1ccc2nc(S(=O)(=O)Cc3ncc(C)c(OC)c3C)[nH]c2c1 ?
-21.3

# iterate: C=C[C@@](C)(O)CC/C=C(\C)C(=O)O[C@@H]1[C@@H]2O[C@]2(C)[C@H]2[C@H](O[C@@H]3O[C@H](CO)[C@@H](O)[C@H](O)[C@H]3O)OC=C[C@@]12O
-6.64

Another compound to look at: CC1NC(=O)CCCNC(=O)C(Cc2c[nH]c3ccccc23)NC(=O)C(C)NC(=O)C(C(C)C)NC(=O)C(C(C)c2ccccc2)NC(=O)C(C(C)C)NC1=O (stereo not drawn) (cyclo([GABA]AV[ξPhe(βξ-Me)]VAW); configuration not given here)
-8.98

Next entry: C[C@H]1CC(=O)Nc2cccc(-c3cnn(C(C)(C)C)c3)c2N1
-2.99

Input O=C(O)C1CN(Cc2ccc(-c3nc4cc(Cc5ccccc5F)ccc4s3)c(F)c2)C1
1.29

Then COc1ccc(/C=C/C(=O)O[C@@H]2[C@@H](O)[C@@H](O)[C@H](O[C@@H]3C=C(CO)[C@H]4[C@H](O[C@@H]5O[C@H](CO)[C@@H](O)[C@H](O)[C@H]5O)OC=C[C@H]43)O[C@H]2C)cc1O ?
0.875

Quick one: C[C@@H]1O[C@@H](O[C@H]2[C@H](O)[C@@H](C(=O)O)O[C@@H](O[C@H]3CC[C@@]4(C)C(CC[C@]5(C)C4CC=C4C6CC(C)(C)CC[C@]6(C(=O)O)CC[C@]45C)C3(C)C)[C@@H]2O[C@@H]2OC[C@@H](O)[C@H](O)[C@H]2O)[C@H](O)[C@H](O)[C@H]1O (stereo partly drawn)
3.95

Next record, please: C=C(C(=O)O)C1CCC2(C)CCC(O)C(C)(O)C2C1 (stereo not drawn)
-18

Give measured max response for every item shown.
1. CC(C)c1cc(C(=O)N2CC[C@@H](NC(=O)C3CC3)C2)n[nH]1
2. CC(C)=CCC[C@](C)(O[C@@H]1O[C@H](CO)[C@@H](O)[C@H](O)[C@H]1O)[C@H]1CC[C@]2(C)[C@@H]1[C@H](O)CC1[C@@]3(C)CC[C@H](O)C(C)(C)C3[C@@H](O[C@@H]3O[C@H](CO)[C@@H](O)[C@H](O)[C@H]3O)C[C@]12C (stereo partly drawn)
3. C=C[C@@H]1[C@H](O[C@@H]2O[C@H](CO)[C@@H](O)[C@H](O)[C@H]2O)OC=C(C(=O)O)[C@H]1CCOC(=O)/C=C/c1ccc(O)c(O)c1

1: -17.8; 2: -0.753; 3: 1.95
